- target: UniProt P51449
- Sequence (P51449 1-497 isoform P51449-2): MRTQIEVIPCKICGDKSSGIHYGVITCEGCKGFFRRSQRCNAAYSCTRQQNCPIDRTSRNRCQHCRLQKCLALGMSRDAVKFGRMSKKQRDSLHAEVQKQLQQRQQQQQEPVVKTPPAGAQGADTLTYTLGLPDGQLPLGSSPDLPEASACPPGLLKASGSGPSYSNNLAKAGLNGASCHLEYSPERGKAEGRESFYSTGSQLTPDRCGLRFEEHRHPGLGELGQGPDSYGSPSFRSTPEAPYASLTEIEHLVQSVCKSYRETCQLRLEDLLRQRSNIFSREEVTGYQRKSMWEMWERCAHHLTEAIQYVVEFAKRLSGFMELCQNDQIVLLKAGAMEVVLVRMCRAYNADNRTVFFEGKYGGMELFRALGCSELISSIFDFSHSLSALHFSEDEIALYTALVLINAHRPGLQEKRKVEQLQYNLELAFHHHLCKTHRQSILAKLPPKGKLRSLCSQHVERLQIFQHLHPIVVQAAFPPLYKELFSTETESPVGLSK
- assay-explanation: RORγt binding test (TR-FRET, fluorescent-labeled cholesterol)
- run-parameters: read-out: binding inhibitory rate (%) of fluorescent-labeled cholesterol to RORγt at test compound 1 μM
quantity-name: inhibition at 1 µM (%)

{"columns": ["molecule", "target", "quantity-name", "units-of-measure", "value-measured"],
 "data": [
  ["COCc1ccc([C@@H](NC(=O)CCO)C(=O)Nc2cc(F)c([Si](C)(C)C)c(F)c2)cc1", "UniProt P51449", "inhibition at 1 µM", "%", 102],
  ["COCc1ccc([C@@H](NC(=O)CCS(C)(=O)=O)C(=O)Nc2ccc([Si](C)(C)C)c(F)c2)cc1", "UniProt P51449", "inhibition at 1 µM", "%", 102],
  ["COCc1ccc(C(NC(=O)N2CCC(O)C2)C(=O)Nc2ccc([Si](C)(C)C)c(F)c2)cc1 (centres unmarked)", "UniProt P51449", "inhibition at 1 µM", "%", 101],
  ["COCc1ccc([C@@H](NC(=O)Cn2ccc(=O)[nH]c2=O)C(=O)Nc2ccc([Si](C)(C)C)c(F)c2)cc1", "UniProt P51449", "inhibition at 1 µM", "%", 102],
  ["COCc1ccc(C(NC(=O)C2CNC(=O)C2)C(=O)Nc2ccc([Si](C)(C)C)c(F)c2)cc1 (centres unmarked)", "UniProt P51449", "inhibition at 1 µM", "%", 95.2],
  ["CC(C)(C)c1ccc(NC(=O)[C@H](NC(=O)C(O)C(F)(F)F)C2CCOCC2)cc1Cl (single isomer, unassigned)", "UniProt P51449", "inhibition at 1 µM", "%", 102],
  ["COCc1ccc([C@@H](NC(=O)Cc2nnc(C)o2)C(=O)Nc2ccc([Si](C)(C)C)c(F)c2)cc1", "UniProt P51449", "inhibition at 1 µM", "%", 103],
  ["COc1ccc(C(NC(=O)N2CCC(O)C2)C(=O)Nc2ccc([Si](C)(C)C)c(F)c2)cc1 (centres unmarked)", "UniProt P51449", "inhibition at 1 µM", "%", 101],
  ["COc1ccc(C(NC(=O)Cc2cc(C)no2)C(=O)Nc2ccc([Si](C)(C)C)cc2)cc1 (centres unmarked)", "UniProt P51449", "inhibition at 1 µM", "%", 101],
  ["COCc1ccc([C@@H](NC(=O)Cn2cnccc2=O)C(=O)Nc2cc(F)c([Si](C)(C)C)cc2F)cc1", "UniProt P51449", "inhibition at 1 µM", "%", 103],
  ["COCc1ccc([C@@H](NC(=O)Cc2cc(O)no2)C(=O)Nc2ccc(C(C)(C)C)c(F)c2)cc1", "UniProt P51449", "inhibition at 1 µM", "%", 103],
  ["COCc1ccc(C(NC(=O)[C@@H]2CNC(=O)C2)C(=O)Nc2ccc(CC(C)(C)C)c(F)c2)cc1 (mixture of isomers)", "UniProt P51449", "inhibition at 1 µM", "%", 99.6],
  ["Cn1ncc2cc([C@@H](NC(=O)[C@@H]3CNC(=O)C3)C(=O)Nc3ccc([Si](C)(C)C)c(F)c3)ccc21", "UniProt P51449", "inhibition at 1 µM", "%", 103],
  ["C[Si](C)(C)c1ccc(NC(=O)C(NC(=O)c2cc(O)no2)C2CCC(F)(F)CC2)cc1F (centres unmarked)", "UniProt P51449", "inhibition at 1 µM", "%", 100],
  ["Cn1ncc2cc([C@@H](NC(=O)Cc3cc(O)no3)C(=O)Nc3cc(F)c(C(C)(C)C)c(F)c3)ccc21", "UniProt P51449", "inhibition at 1 µM", "%", 103],
  ["COc1ccc(C(C(=O)Nc2cc(F)c([Si](C)(C)C)cc2F)N(C)C(=O)c2cc(O)no2)cc1 (centres unmarked)", "UniProt P51449", "inhibition at 1 µM", "%", 101],
  ["CC(C)(C)c1ccc(NC(=O)[C@H](NC(=O)C2CNC(=O)O2)C2CCC(F)(F)CC2)cc1F (some centres unmarked)", "UniProt P51449", "inhibition at 1 µM", "%", 102],
  ["COCc1ccc([C@@H](NC(=O)Cn2cnccc2=O)C(=O)Nc2ccc(C(C)(C)C)c(F)c2)cc1", "UniProt P51449", "inhibition at 1 µM", "%", 99.6],
  ["COCc1ccc(C(NC(=O)[C@@H]2CNC(=O)C2)C(=O)Nc2ccc(C(C)(C)C)c(Cl)c2)cc1 (some centres unmarked)", "UniProt P51449", "inhibition at 1 µM", "%", 101],
  ["COCc1ccc([C@@H](NC(=O)CO)C(=O)Nc2ccc([Si](C)(C)C)c(F)c2)cc1", "UniProt P51449", "inhibition at 1 µM", "%", 103],
  ["COCc1ccc(C(NC(=O)N2CC(O)C2)C(=O)Nc2ccc([Si](C)(C)C)c(F)c2)cc1 (centres unmarked)", "UniProt P51449", "inhibition at 1 µM", "%", 101],
  ["COCc1ccc(C(NC(=O)Cc2nnc(C)o2)C(=O)Nc2cc(F)c([Si](C)(C)C)cc2F)cc1 (centres unmarked)", "UniProt P51449", "inhibition at 1 µM", "%", 102],
  ["COCc1ccc([C@@H](NC(=O)N2CC[C@H](F)C2)C(=O)Nc2ccc([Si](C)(C)C)c(F)c2)cc1", "UniProt P51449", "inhibition at 1 µM", "%", 98.6],
  ["COCc1ccc([C@@H](NC(=O)Cn2cnccc2=O)C(=O)Nc2ccc([Si](C)(C)C)c(F)c2)cc1", "UniProt P51449", "inhibition at 1 µM", "%", 102],
  ["COCc1ccc([C@@H](NC(=O)N2CC[C@H](O)C2)C(=O)Nc2ccc([Si](C)(C)C)c(F)c2)cc1", "UniProt P51449", "inhibition at 1 µM", "%", 102],
  ["COc1ccc([C@H](C(=O)Nc2ccc([Si](C)(C)C)c(F)c2)N(C)C(=O)c2cc(O)no2)cc1", "UniProt P51449", "inhibition at 1 µM", "%", 102],
  ["CC(C)(C)c1ccc(NC(=O)[C@H](NC(=O)[C@@H]2CNC(=O)C2)C2CCC(F)(F)CC2)cc1F", "UniProt P51449", "inhibition at 1 µM", "%", 102],
  ["COCc1ccc(C(NC(=O)Cn2ncc3ccccc32)C(=O)Nc2cc(F)c([Si](C)(C)C)cc2F)cc1 (centres unmarked)", "UniProt P51449", "inhibition at 1 µM", "%", 100],
  ["C[Si](C)(C)c1c(F)cc(NC(=O)[C@H](NC(=O)c2cc(O)no2)C2CCOCC2)cc1F", "UniProt P51449", "inhibition at 1 µM", "%", 100]
]}

---

- target: RORγt (Homo sapiens, UniProt P51449)
- assay-explanation: Cofactor recruitment test (Alpha Screen, biotinylated SRC-1 peptide)
- Type: biochemical
- run-parameters: read-out: signal value inhibitory rate (%) at test compound 1 μM
inhibition at 1 µM: recorded values
quantity-name: inhibition at 1 µM (%)

{"columns": ["compound", "target", "quantity-name", "value-measured"],
 "data": [
  ["COCc1ccc(C(NC(=O)Cn2cnccc2=O)C(=O)Nc2cc(F)c([Si](C)(C)C)cc2F)cc1 (stereo not shown) [Example 45]", "RORγt (Homo sapiens, UniProt P51449)", "inhibition at 1 µM", 94.1],
  ["COCc1ccc([C@@H](NC(=O)Cn2cnccc2=O)C(=O)Nc2ccc(C(C)(C)C)c(F)c2)cc1 [Example 100]", "RORγt (Homo sapiens, UniProt P51449)", "inhibition at 1 µM", 86.3],
  ["COCc1ccc([C@@H](NC(=O)Cc2nnc(C)o2)C(=O)Nc2ccc([Si](C)(C)C)c(F)c2)cc1 [Example 67]", "RORγt (Homo sapiens, UniProt P51449)", "inhibition at 1 µM", 96],
  ["COCc1ccc([C@@H](NC(=O)C2CC2(F)F)C(=O)Nc2ccc([Si](C)(C)C)c(F)c2)cc1 (stereo partly shown) [Example 84]", "RORγt (Homo sapiens, UniProt P51449)", "inhibition at 1 µM", 94.4]
]}
